Record form. Attribute: half-life. Fill in for each entry.
- protocol_summary: in vitro
- test_parameters: human, liver microsomes
- Description: Half life in human liver microsomes
Give bare numbers, in min.

Solved cases (2 shown):
O=C(O)Cc1ccccc1Nc1c(Cl)cccc1Cl = 11.9
O=c1oc2ccccc2c2oc3ccc(O)c(CN4CCCCC4)c3c12 = 21.4

So, `CCOC(=O)c1c(-c2ccccc2)oc2ccc(O)c(CN3CCCCC3)c12` ? Its half-life was 53

###

Record form. Attribute: remaining at 1 h. Fill in for each entry.
- protocol_summary: in vitro
- test_parameters: human, liver microsomes
- Description: Stability in human liver microsomes assessed as parent compound remaining measured after 60 mins
Answers are plain numbers, in %.

Value sought for every listed compound: remaining at 1 h.
1. O=c1oc2cc(O)ccc2c2oc3ccc(O)c(CN4CCCCC4)c3c12
2. CCOC(=O)c1c(-c2ccccc2)oc2ccc(O)c(CN3CCCCC3)c12
3. CCOC(=O)c1c(-c2ccc(O)cc2)oc2ccc(O)c(CN3CCCCC3)c12
4. C[C@]12CC[C@H]3[C@@H](CCC4=CC(=O)CC[C@@]43C)[C@@H]1CC[C@@H]2O
5. O=c1oc2ccccc2c2oc3ccc(O)c(CN4CCCCC4)c3c12

Result:
[73.6, 46.6, 10.8, 12.5, 14.5]

###

- protocol_summary: in vitro
- test_parameters: human, liver microsomes
- Description: Intrinsic clearance in human liver measured from intrinsic clearance in human liver microsomes
measurement_label: CLint scaled (mL/min/kg)
Answers are plain numbers, in mL/min/kg.

Solved cases (4 shown):
O=C(O)Cc1ccccc1Nc1c(Cl)cccc1Cl [DICLOFENAC] = 105
CCOC(=O)c1c(-c2ccccc2)oc2ccc(O)c(CN3CCCCC3)c12 = 23.6
C[C@]12CC[C@H]3[C@@H](CCC4=CC(=O)CC[C@@]43C)[C@@H]1CC[C@@H]2O [TESTOSTERONE] = 62.8
O=c1oc2ccccc2c2oc3ccc(O)c(CN4CCCCC4)c3c12 = 58.4

Now examine the next entry.
So, `CCOC(=O)c1c(-c2ccc(O)cc2)oc2ccc(O)c(CN3CCCCC3)c12` ? Its CLint scaled was 66.3

###

Record form. Attribute: CLint scaled. Fill in for each entry.
- protocol_summary: in vitro
- test_parameters: human, liver microsomes
- Description: Intrinsic clearance in human liver microsomes
Reply with a number, then the unit it belongs to.

CCOC(=O)c1c(-c2ccccc2)oc2ccc(O)c(CN3CCCCC3)c12 = 26.2 mL/min/kg

Now examine the next entry.
So, `O=c1oc2ccccc2c2oc3ccc(O)c(CN4CCCCC4)c3c12` ? Its CLint scaled was 64.9 mL/min/kg

###

- protocol_summary: Selectivity index, ratio of IC50 for African green monkey Vero cells to MIC=
- Type: toxicity
- test_parameters: read-out: Ratio IC50
measurement_label: selectivity ratio
Give bare numbers.

CC1CCN(Cc2c(O)ccc3oc4c5ccccc5oc(=O)c4c23)CC1 = 32
O=c1oc2ccccc2c2oc3ccc(O)c(CN4CCCC4)c3c12 = 16

Value sought for every listed compound: selectivity ratio.
1. CC(C)(C)c1cc(O)c(CN2CCCCC2)c2c1oc1c3cc(O)ccc3oc(=O)c12
2. CC(C)(C)c1cc(O)c(CN2CCCCC2)c2c1oc1c3ccc(O)cc3oc(=O)c12
3. CC1CCCCN1Cc1c(O)ccc2oc3c4ccccc4oc(=O)c3c12 (centres undefined)

Result:
1. 64
2. 2048
3. 16

###

- Test system: HEK293
- protocol_summary: Cytotoxicity against HEK293 cells measured after 48 hrs by CellTiter 96 AQueous One Solution Cell Proliferation assay
- Assay type: cell-based
- test_parameters: Homo sapiens, HEK293, 48 h
measurement_label: IC50 (µM)
Numbers only, in µM.

Tested on HEK293, the item `CC(C)(C)c1cc(O)c(CN2CCCCC2)c2c1oc1c3ccc(O)cc3oc(=O)c12` showed IC50 equal to 33.6
